target: mAChR M1 (UniProt P11229); test: mAChR M1 cell-based functional assay (calcium mobilization, antagonist mode); conditions: concentration of antagonist decreasing calcium flux by 50%; EC80 acetylcholine response; CHO-K1 cells expressing mAChR M1; read-out: Potency (IC50)

COMPOUND	IC50
CC(C)S(=O)(=O)N1CC(C(=O)N2CCN(c3ccncc3)CC2)C1	> 10 µM
O=C(C1CN(S(=O)(=O)c2cccc3nonc23)C1)N1CC2CN(c3ccncc3)CC2C1 (stereo not drawn)	0.96 µM
O=C(C1CN(S(=O)(=O)c2ccc(C(F)(F)F)nc2)C1)N1CCN(c2ccncc2)CC1	> 10 µM

----------
Target: mAChR M1 (UniProt P11229)
Sequence (P11229 1-460): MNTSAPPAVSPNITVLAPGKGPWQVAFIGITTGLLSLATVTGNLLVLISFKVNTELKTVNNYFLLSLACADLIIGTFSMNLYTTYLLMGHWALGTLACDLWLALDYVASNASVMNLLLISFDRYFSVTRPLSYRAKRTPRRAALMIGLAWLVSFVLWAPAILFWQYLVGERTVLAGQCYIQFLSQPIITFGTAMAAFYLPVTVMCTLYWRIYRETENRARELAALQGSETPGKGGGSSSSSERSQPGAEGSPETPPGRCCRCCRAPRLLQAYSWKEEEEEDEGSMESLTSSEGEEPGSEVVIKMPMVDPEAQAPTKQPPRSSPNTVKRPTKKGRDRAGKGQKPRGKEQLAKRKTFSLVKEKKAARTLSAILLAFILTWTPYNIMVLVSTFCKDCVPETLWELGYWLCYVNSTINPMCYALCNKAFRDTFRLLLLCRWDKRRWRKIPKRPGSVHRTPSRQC
Experiment: mAChR M1 cell-based functional assay (calcium mobilization, antagonist mode)
Conditions: read-out: Potency (IC50); concentration of antagonist decreasing calcium flux by 50%; EC80 acetylcholine response; CHO-K1 cells expressing mAChR M1
MEASURED_ATTRIBUTE: IC50

COMPOUND	RESULT
CC(C)(C)CS(=O)(=O)N1CC(C(=O)N2CC3CN(c4ccncc4)CC3C2)C1 (stereo not shown)	> 10 µM

----------
biological target: UniProt:P11229; test: mAChR M1 cell-based functional assay (calcium mobilization, antagonist mode); conditions: activity remaining at top dose of 30 μM test compound, as percentage of the response to an approx. EC80 concentration of ACh
MEASURED_ATTRIBUTE: Remaining Activity (%)

MOLECULE	MEASURED_ATTRIBUTE	RESULT
O=C1CCc2cc(S(=O)(=O)N3CC(C(=O)N4CCN(c5ccncc5)CC4)C3)ccc2N1 [B79]	Remaining Activity (%)	≧80%
CN1CCOc2cc(S(=O)(=O)N3CC(C(=O)N4CCN(c5ccncc5)CC4)C3)cnc21 [B73]	Remaining Activity (%)	≧80%
O=C(C1CN(S(=O)(=O)c2ccc(C(F)(F)F)nc2)C1)N1CCN(c2ccncc2)CC1 [B41]	Remaining Activity (%)	37%
CCC(C)S(=O)(=O)N1CC(C(=O)N2CCN(c3ccncc3)CC2)C1 (stereo not drawn) [B46]	Remaining Activity (%)	52%
O=C(C1CN(S(=O)(=O)C2CCOCC2)C1)N1CCN(c2ccncc2)CC1 [B81]	Remaining Activity (%)	≧80%
CN1CCN(C(=O)C2CN(S(=O)(=O)c3cccc4cnccc34)C2)CC1 [B80]	Remaining Activity (%)	≧80%
Cc1nc(-c2cccc(S(=O)(=O)N3CC(C(=O)N4CCN(c5ccncc5)CC4)C3)c2)no1 [B71]	Remaining Activity (%)	≧80%
O=C(C1CN(S(=O)(=O)C2CCCCC2)C1)N1CCN(c2ccncc2)CC1 [B47]	Remaining Activity (%)	50%
Cn1ccc(-c2ccccc2S(=O)(=O)N2CC(C(=O)N3CCN(c4ccncc4)CC3)C2)n1 [B64]	Remaining Activity (%)	≧80%

Where do the numbers come from? From patent US8697888B2.
